Ref: the CheMixHub drug solubility set

- test: xn = mol fraction of the nth substance listed, in the solute-free solvent
- details: 283.15 K; x2 = 0.8
measured attribute: solubility (g/100 g solution)
Write the value as a bare number.

Example entries and their recorded answers appear below.
solubility (g/100 g solution) measured on O=C1CCc2ccc(OCCCCN3CCN(c4cccc(Cl)c4Cl)CC3)cc2N1 + CCC(C)=O + CCCO = 2.09

solubility (g/100 g solution) measured on COC1=CC(=O)CC(C)C12Oc1c(Cl)c(OC)cc(OC)c1C2=O (stereo unspecified) + CC(C)=O + CC(C)O = 2.16

The molecule listed as O=C(O)C1CSCN1 (stereo unspecified) + O + CC#N shows solubility (g/100 g solution) equal to 0.965

***
Reported solubility (g/100 g solution) ( COC1=CC(=O)CC(C)C12Oc1c(Cl)c(OC)cc(OC)c1C2=O (stereo unspecified) + CC(=O)CC(C)C + CC(C)O ) = 0.675

Entry CCCCOc1ccc(C(=O)CCN2CCCCC2)cc1.Cl + CCO + CCCCCC — recorded solubility (g/100 g solution) = 26.3

# solubility (g/100 g solution) (molecule: COC1=CC(=O)CC(C)C12Oc1c(Cl)c(OC)cc(OC)c1C2=O (stereo unspecified) + CCC(C)=O + CC(C)O ) is 1.7

Lookup result for CCCCOc1ccc(C(=O)CCN2CCCCC2)cc1.Cl + CO + C1CCOC1 ; measured solubility (g/100 g solution): 38.9

solubility (g/100 g solution) reported for this molecule CCCCOc1ccc(C(=O)CCN2CCCCC2)cc1.Cl + CCO + O : 35

====

- test: xn = mol fraction of the nth substance listed, in the solute-free solvent
- details: 333.15 K; x2 = 0.9
# maps each entry to its solubility (g/100 g solution)
Lab note: write the figure by itself, no unit.

solubility (g/100 g solution) reading for O=C(O)c1ccc(C(=O)O)o1 + O + COCCOC : 5.55

Form: compound = O=C(O)c1ccc(C(=O)O)o1 + C1CCOC1 + O ; solubility (g/100 g solution) = 4.98

Short answer for O=C(O)c1ccc(C(=O)O)o1 + O + COCCOCCOC : solubility (g/100 g solution) was 5.21

solubility (g/100 g solution) measured on O=C(O)c1ccc(C(=O)O)o1 + C1COCCO1 + O = 2.35

====

- test: xn = mol fraction of the nth substance listed, in the solute-free solvent
- details: 308.15 K; x2 = 0.4
measured attribute: solubility (g/100 g solution)
Form: value (number only, do not type unit).

Answered examples (4):
The reported solubility (g/100 g solution) of the molecule COC1=CC(=O)CC(C)C12Oc1c(Cl)c(OC)cc(OC)c1C2=O (stereo not given) + CCC(C)=O + CC(C)O was 1.44

Summary for this molecule, O=C1CCc2ccc(OCCCCN3CCN(c4cccc(Cl)c4Cl)CC3)cc2N1 + CCC(C)=O + CC(C)=O : solubility (g/100 g solution) is 3.21

solubility (g/100 g solution) reported for this molecule COC1=CC(=O)CC(C)C12Oc1c(Cl)c(OC)cc(OC)c1C2=O (stereo not given) + CC(=O)CC(C)C + CC(C)O : 1.04

Noted for CCCCOc1ccc(C(=O)CCN2CCCCC2)cc1.Cl + CCO + CCOC(C)=O : its solubility (g/100 g solution) reads 23.7

New cases:
For CCCCOc1ccc(C(=O)CCN2CCCCC2)cc1.Cl + CCO + O the molecule record lists solubility (g/100 g solution) as 52.4

In plain terms, CC(=O)OC(c1ccccc1)C(Cl)(Cl)Cl (stereo not given) + CC(C)O + O has a documented solubility (g/100 g solution) of 3.38

====

- test: xn = mol fraction of the nth substance listed, in the solute-free solvent
- details: 308.15 K; x2 = 0.9
Values of solubility (g/100 g solution) greater than or equal to 4 map to met; values below map to not met.

# count of solved cases: 4
Query: Determine whether measured solubility (g/100 g solution) meets or exceeds 4 for CCCCOc1ccc(C(=O)CCN2CCCCC2)cc1.Cl + CCO + CCOC(C)=O
Response: met

Query: Tell me whether solubility (g/100 g solution) is at least 4 here: COC1=CC(=O)CC(C)C12Oc1c(Cl)c(OC)cc(OC)c1C2=O (configuration not stated) + CCC(C)=O + CC(C)O
Response: not met

Query: hey, is solubility (g/100 g solution) for this one >= 4? COC1=CC(=O)CC(C)C12Oc1c(Cl)c(OC)cc(OC)c1C2=O (configuration not stated) + CC(=O)CC(C)C + CC(C)O
Response: not met

Query: Tell me whether solubility (g/100 g solution) is at least 4 here: CC(=O)OC(c1ccccc1)C(Cl)(Cl)Cl (configuration not stated) + CC(C)O + O
Response: met

---
Query: Would you say O=C1CCc2ccc(OCCCCN3CCN(c4cccc(Cl)c4Cl)CC3)cc2N1 + CCC(C)=O + CCOC(C)=O shows solubility (g/100 g solution) at minimum 4?
Response: not met

Query: Does solubility (g/100 g solution) meet or surpass 4 for O=C(O)c1ccc(C(=O)O)o1 + O + COCCOC ?
Response: met

Query: Can COC1=CC(=O)CC(C)C12Oc1c(Cl)c(OC)cc(OC)c1C2=O (configuration not stated) + CC(C)=O + CC(C)O be said to have solubility (g/100 g solution) at or above 4?
Response: met

Query: Does the reported solubility (g/100 g solution) for CCCCOc1ccc(C(=O)CCN2CCCCC2)cc1.Cl + CO + C1CCOC1 fall at or above the 4 mark?
Response: met

====

- test: xn = mol fraction of the nth substance listed, in the solute-free solvent
- details: 298.15 K; x2 = 0.6
measured attribute: solubility (g/100 g solution)
// print number alone

Short answer for CC(=O)OC(c1ccccc1)C(Cl)(Cl)Cl (centres undefined) + CCO + O : solubility (g/100 g solution) was 1.77

Lab note: O=C1CCc2ccc(OCCCCN3CCN(c4cccc(Cl)c4Cl)CC3)cc2N1 + CCC(C)=O + CC(C)=O gave solubility (g/100 g solution) of 2.36

solubility (g/100 g solution) for COC1=CC(=O)CC(C)C12Oc1c(Cl)c(OC)cc(OC)c1C2=O (centres undefined) + CC(=O)CC(C)C + CC(C)O is 0.902

Item: CC(=O)OC(c1ccccc1)C(Cl)(Cl)Cl (centres undefined) + CC(C)O + O | solubility (g/100 g solution): 3.54

Per the record, CCCCOc1ccc(C(=O)CCN2CCCCC2)cc1.Cl + CCO + O has solubility (g/100 g solution) of 44.7

Please fill in: solubility (g/100 g solution) reported for CCCCOc1ccc(C(=O)CCN2CCCCC2)cc1.Cl + CO + C1CCOC1 = 36.7

Further cases:
Briefly, solubility (g/100 g solution) measured for CCCCOc1ccc(C(=O)CCN2CCCCC2)cc1.Cl + CCO + CCOC(C)=O : 26.5

So for CC(=O)OC(c1ccccc1)C(Cl)(Cl)Cl (centres undefined) + CC(=O)O + O , the logged solubility (g/100 g solution) turned out to be 2.67

Entry COC1=CC(=O)CC(C)C12Oc1c(Cl)c(OC)cc(OC)c1C2=O (centres undefined) + CCC(C)=O + CC(C)O , solubility (g/100 g solution) reported as 1.75

The molecule CCCCOc1ccc(C(=O)CCN2CCCCC2)cc1.Cl + CCO + CCCCCC showed solubility (g/100 g solution) equal to 25

Item: O=C1CCc2ccc(OCCCCN3CCN(c4cccc(Cl)c4Cl)CC3)cc2N1 + CCC(C)=O + CCCO | solubility (g/100 g solution): 3.75

Noted for COC1=CC(=O)CC(C)C12Oc1c(Cl)c(OC)cc(OC)c1C2=O (centres undefined) + CC(C)=O + CC(C)O : its solubility (g/100 g solution) reads 2.08

Recorded result, O=C(O)c1ccc(C(=O)O)o1 + C1CCOC1 + O , solubility (g/100 g solution): 6.9

Lab note: measured solubility (g/100 g solution) of O=C1CCc2ccc(OCCCCN3CCN(c4cccc(Cl)c4Cl)CC3)cc2N1 + CCC(C)=O + CCOC(C)=O was 1.89

====

Catalogue of solubility (g/100 g solution) readings, one per entry.
- test: xn = mol fraction of the nth substance listed, in the solute-free solvent
- details: 323.15 K; x2 = 0.6
Reply with the value as a number alone.

Examples from the recorded data:
Reported solubility (g/100 g solution) of CCCCOc1ccc(C(=O)CCN2CCCCC2)cc1.Cl + CCO + O : 61.5

Input CCCCOc1ccc(C(=O)CCN2CCCCC2)cc1.Cl + CCO + CCOC(C)=O . Output solubility (g/100 g solution): 41.7

solubility (g/100 g solution) recorded for this molecule, COC1=CC(=O)CC(C)C12Oc1c(Cl)c(OC)cc(OC)c1C2=O (centres undefined) + CCC(C)=O + CC(C)O , is 3.41

Consider the record given below.
Lab note: measured solubility (g/100 g solution) of CCCCOc1ccc(C(=O)CCN2CCCCC2)cc1.Cl + CO + C1CCOC1 was 53.3
